Entries and their Kd values follow.
- ASSAY TARGET: T1, cynomolgus monkey IL-17 (cynomolgus monkey, UniProt Q16552 24-155 (human entry), limits assumed)
- T1 construct: Not commercially available; cloned and expressed; also called CYNO IL-17
- T1 chain: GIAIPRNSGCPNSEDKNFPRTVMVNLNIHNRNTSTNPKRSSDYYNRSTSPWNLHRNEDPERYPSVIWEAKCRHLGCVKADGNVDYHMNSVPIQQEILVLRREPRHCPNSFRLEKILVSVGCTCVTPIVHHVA
- ASSAY NOTES: SPR (BIACORE 2000), mAb captured on Protein A, IL-17 injected, 25 C, 1:1 with mass transfer model;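 also: CM4 chip with immobilized Protein A, HBS-EP running buffer pH 7.4, IL-17 titrated downward from 10 nM in twofold steps, 20 min dissociation phase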
Report the value in pM with no unit label.

In the examples that follow, each entry is paired with its recorded Kd.
mAb 103 (full-length, IgG4 Fc region) (antibody, V domains shown, also called full-length mAb 103) VH: QVQLVQSGAEVKKPGSSVKVSCKASGYSFTDYHIHWVRQAPGQGLEWMGVINPEYGTTDYNQRFKGRVTITADESTSTAYMELSSLRSEDTAVYYCARYDYFTGTGAYWGQGTLVTVSS VL: DIVMTQTPLSLSVTPGQPASISCRSSQSLRHSRGNTYLHWYLQKPGQSPQLLIYKVSNIFSGVPDRFSGSGSGTDFTLKISRVEAEDVGVYYCSQSTHYPFTFGQGTKLEIK	1.3
mAb 126 (full-length, IgG4 Fc region) (antibody, V domains shown, Full-length mAb with an IgG4 Fc region) VH: QVQLVQSGAEVKKPGSSVKVSCKASGYSFTDYHIHWVRQAPGQGLEWMGVINPMYGTTDYNQRFKGRVTITADESTSTAYMELSSLRSEDTAVYYCARYDYFTGTGVYWGQGTLVTVSS VL: DIVMTQTPLSLSVTPGQPASISCRSSRSLVHSRGNTYLHWYLQKPGQSPQLLIYKVSNRFIGVPDRFSGSGSGTDFTLKISRVEAEDVGVYYCSQSTHLPFTFGQGTKLEIK	0.8
mAb 121 (full-length, IgG4 Fc region) (antibody, V domains shown, Full-length mAb with an IgG4 Fc region) VH: QVQLVQSGAEVKKPGSSVKVSCKASGYSFTDYHISWVRQAPGQGLEWMGVINPEYGTTDYNQRFKGRVTITADESTSTAYMELSSLRSEDTAVYYCARYDYFTGTGAYWGQGTLVTVSS VL: DIVMTQTPLSLSVTPGQPASISCRSSQSLKHSRGNTFLHWYLQKPGQSPQLLIYKVSNRFIGVPDRFSGSGSGTDFTLKISRVEAEDVGVYYCSQSTHYPFTFGQGTKLEIK	1.1

Next binder, Kd to be filled in.
State the recorded Kd for this entry: mAb 104 (full-length, IgG4 Fc region) (antibody, V domains shown, also called full-length mAb 104) VH: QVQLVQSGAEVKKPGSSVKVSCKASGYSFTDYHIHWVRQAPGQGLEWMGVINPEYGTTDYNQRFKGRVTITADESTSTAYMELSSLRSEDTAVYYCARYDYFTGTGAYWGQGTLVTVSS VL: DIVMTQTPLSLSVTPGQPASISCRSSKSLVHSRGNTFLHWYLQKPGQSPQLLIYKVSTRFSGVPDRFSGSGSGTDFTLKISRVEAEDVGVYYCSQSTHYPFTFGQGTKLEIK
0.5
